Listed next: entries and their corresponding melting point.
Counter-ions that a name gives are not always drawn.

1) NC(=O)N(O)CCCCc1ccc(OCCN2CCN(C(c3ccc(F)cc3)c3ccc(F)cc3)CC2)cc1 [Compound 88]    140 to 145 °C
2) NC(=O)N(O)CCC#Cc1ccc(OCC#CCN2CCN([C@H](c3ccccc3)c3ccc(Cl)cc3)CC2)cc1 [Compound 95]    127 to 130 °C
3) CC(=O)Nc1cc(C#CCCN(O)C(N)=O)ccc1OCCN1CCN([C@H](c2ccccc2)c2ccc(Cl)cc2)CC1 [Compound 77]    90 to 95 °C
4) NC(=O)N(O)CCC#Cc1ccc(OCCCCN2CCN(C(c3ccc(F)cc3)c3ccc(F)cc3)CC2)cc1 [Compound 80]    64 to 68 °C
5) NC(=O)c1cc(C#CCCN(O)C(N)=O)ccc1OCCN1CCN([C@H](c2ccccc2)c2ccc(Cl)cc2)CC1 (as salt: HCl) [Compound 64]    208 °C
6) NC(=O)c1cc(C#CCCN(O)C(N)=O)ccc1OCCN1CCN([C@H](c2ccccc2)c2ccc(Cl)cc2)CC1 (as salt: maleate) [Compound 91]    169 to 172 °C

Now look at this entry.
Value of measured melting point for the entry NC(=O)N(O)CCCCc1ccc(OCCN2CCN([C@H](c3ccccc3)c3ccc(Cl)cc3)CC2)cc1 [Compound 17] : 148 to 150 °C

# credit: patent US6894059B1
